system: Echinochloa crus-galli (ECHCG); experiment: Pre-emergence herbicide test, glasshouse, percentage damage; format: in vivo; conditions: rate 1000 g/ha, evaluated after 13 days
For each record, write down the corresponding Pre-emergence Test ECHCG percentage damage (five point scale).

Example entries begin here.
N#Cc1cccc(Oc2ncc(Cl)cc2F)c1-n1cc(C(F)(F)F)cn1	5 (5=81-100%)
N#Cc1cccc(Oc2ncc(Cl)cc2F)c1-c1cc(C(F)F)no1	5 (5=81-100%)
Fc1cc(Cl)cnc1Oc1cccc(Br)c1-c1cc(C(F)F)no1	5 (5=81-100%)
Fc1cc(Cl)cnc1Oc1c(Br)cccc1-c1cc(C(F)F)no1	2 (2=21-40%)
Fc1cccc(Oc2nc(Cl)ccc2C(F)(F)F)c1-c1cc(C(F)F)no1	1 (1=0-20%)
Fc1cc(Cl)cnc1Oc1cccc(Br)c1-n1cc(C(F)(F)F)cn1	2 (2=21-40%)
O=[N+]([O-])c1ccc(Oc2cccc(Br)c2-c2cc(C(F)F)no2)nc1	5 (5=81-100%)
Fc1ccc(Oc2cccc(F)c2-c2cc(C(F)F)no2)nc1F	1 (1=0-20%)

# return Pre-emergence Test ECHCG percentage damage (five point scale) for each item in the list
1. Fc1cc(Cl)cnc1Oc1c(F)cccc1-c1cc(C(F)F)no1
2. O=[N+]([O-])c1ccc(Oc2ccccc2-n2cc(C(F)(F)F)cn2)nc1

**Result**
1. 4 (4=61-80%)
2. 5 (5=81-100%)

# map each molecule to its Pre-emergence Test ECHCG percentage damage (five point scale)
1. FC(F)c1cc(-c2c(Cl)cccc2Oc2cc(Cl)ccn2)on1
2. Fc1cc(Cl)cnc1Oc1cccc(F)c1-n1cc(C(F)(F)F)cn1
3. N#Cc1ccnc(Oc2cccc(Cl)c2-c2cc(C(F)F)no2)c1
4. N#Cc1ccc(Oc2cccc(Cl)c2-c2cc(C(F)F)no2)nc1
5. Fc1cc(Cl)cnc1Oc1cccc(F)c1-c1cc(C(F)(F)F)no1

**Result**
1. 1 (1=0-20%)
2. 5 (5=81-100%)
3. 5 (5=81-100%)
4. 5 (5=81-100%)
5. 5 (5=81-100%)
